- procedure.details: yeast display, Sf9 membrane polyspecificity reagent, FACS + sequencing; frameworks hold sequencing errors
parameter.measured: polyreactivity (PSR sort gate)

QVQLVESGGGLVQAGGSLRLSCAASGLTLGRYAKGWYRQAPGKARELVAVITGGGSTNYADSVKGRFTISRDNAKNTVYLQMNTLKTEDTAVYFCAVRGGIFQTLSTWYRYYYWGQGTQVTVSS | high polyreactivity
QVQLVESGGGLVQASGSLRLSCAASGLTFYLNAMGWYRPEHGKERELVAGISYTGGSTYYADSVKGRFTISRDNAKNTVYLQMNSLKPEDTAVYSCARDNFYYGVWDYGYWGQGTQVTVSS | low polyreactivity
QVQLVESGGGLVQAGGSLRLICAASGRTFRGNAKGCYRQAPGKERELVAAISGRGTNTYYADSVKGRFTISRDNAKNTVYLQMNSLKPEDTAVYYCAKVFYSYRDHYDYWGQGTQVTVSS | high polyreactivity
QVQLVESGGGLVQAGGSLRLSCAASGITFNYYAKGSYRQAPGKERELVATINRSGGTTYYADSVKGRFTISRDNAKNTVYLQMNSLKPAVTAVYYCGALSKTRGGYWGQGTQVTVSS | high polyreactivity
QVQLVESGGGLVQAGGSLRISCAASGSTFRWYAMGWYRQAPGKEREFVAAITWSGGRTYYADSVKGRFTISRDNAKNTVYLQMNSLKPEDTAVYYGNADDYGDSFNYWGQGTQVTVSS | high polyreactivity
QLQLVESGGGLVQAGGSLRLSCAASGSIFFGNVMGWYRQAPGKERELVAAINTDGRTYYADSVKGRFTISRDNAKNTVYLQMNSLKPEDTAVYYCAARKGYRYYYWGQGTQVTVSS | high polyreactivity
QVQLVESGGGIVQAGGSLRLSCAASGLTFRKYAMGWYRQAPGKERELVAAIRFRGGSTYYADSVKGRFTISRDNAKNTVYLQMNSLKPEDTAVYYCNTAPVGLLYGRYDYWGEGTQVTVSS | high polyreactivity
QVQLVESGGGLVQAGGSLRLSCAASGSIFYYGMGWYRQAPGKERELVAAITRGGSTYYADSVKGRFTISRDNAKNTVYLQMNSLKPEDTAVYYCATGPLVYYSARYSSYVYPYDYWGQGTQVTVSS | low polyreactivity
QVQLVESGGGLVLAGGSLRLSCAASGSTFARNAMGWYRHAPGKERELVAAISWNGGRTYYADSVKGRFTISRDNAKNTVYLQMNSLKPEDTAVYYCAAKYVKDYWSDFDYWGQGTQVTVSS | high polyreactivity
QVQLVESGGGLVQAGGSLRLSCAASGFIFSYYTMGWYRQAPGKERELVAAITSGGSTNYADSVKGRFTISRDNAKNTVYLQMNSLKPEDTAVYYCNALLWAWTLWGSGYDYWGQGTQVTVSS | low polyreactivity

List polyreactivity (PSR sort gate) for every entry below, keeping the order given.
1. QVQLVESGGGLVQAGGSLPLSCAASGSTFKQNVMGWYIQAPGKERELVAAITSNDDRTYYADSVKGRFTISRDNAKNTFYLQMNSLKPEDTAVYYCAVESLRDVFEYDYWGQGTQVTVSS
2. QVQLVESGGGLVQAGGSLRLSCAASGRIFRSYTMGWYRQAPGKERELVAAISKTGSRTYYADSVKGRFTISRDNAKNTVYLQMNSLKPEDTAVYYCAALFVHSYRDDYWGQGTQVTVSS
3. QVQLVESGGGLVQAGGSLRLSCAASGLTFSKNARGWYRQSPGKDRELVATISYSSSRTNYADSVKGRFTISRVNAKNPVYLQMNSLKPEDTAVYYCAARVYNGWPTHYDYWGQGTQVTVSS
4. QVQLVESCGGIVQAGGSLRLSCAASGSTFRVNAMGWYRHSPGKERELVAAIRKSGGSTYADSVKGRFTISRDNAKNTFNLQMNSLKPEDTGVYYCNADATAWLGLADNYWVQGTQVTVSS
5. QVQLVESGGGLVQAGGSLRLSCAASGRIFAFYALGWYIQAPGKERELVAAISWSDDITYYADSVKGRFTISRDNAKNTVYSQMNSLKPEDTAVYYCAYRRRGYAFSSDYWGQGTQVTVSS
6. QVQLVESGGGLVQTGGSLRLSCAASGRIFRSYAMGWYRPAPGKERELVAAISGSGGSTYYADSVKGRFTISRDNAKNTVYVQMNSLKPEDTAVYYCNACKVHPFSTRFYYWGQGTQVTVSS

["low polyreactivity", "high polyreactivity", "high polyreactivity", "low polyreactivity", "high polyreactivity", "low polyreactivity"]

List polyreactivity (PSR sort gate) for every entry below, keeping the order given.
1. QVQLVESGGGLVQAGGSLRLSCAASGITFSKYAMGWYRQAPGKERELVAAISQRGGSKYYADSVKGRFTISRDNAKNTVYLQMNSLKPEDTAVYYCNAEFYWSIIAYEYWGQGTQVTVSS
2. QVQLVESGGGLVQAGGSLRLSCAASGRTIRSYAMGWYRQAPGKERELVAAITGSGGRTYYADSVKGRFTISRDNAKNTVYLQLNSLKPEDTAVYYCAARLRGSYDYWGQGTQVTVSS
3. QVQLVESGGGLVQAGGSLRLSCAASGRIFGYYTMGWYRQAPGKERELVATIDWSGDSTYYADSVKARFTISRDNAKNTVYLQMNSLKPEDTAVYYCAARDHAFRYYRNPYKGKYDYWGQGTQVPVSS
4. QVQLVESGGGLVQAGGSLRLSCAASGFIFYKYAMGWYRQAPGKERELVAAISRGGTTTYADSVKGRFTISRDNAKNTVYLQMNSLKPEDTAVYYCNKYFRYRYDYWGQGTQVTVSS
5. QVQLVESGGGLVQAGGSLRLRCAASGGTFYYYAMGWYRQAPGKERELVAAISTSGTSTYYADSVKGRFTISRDNAKNTVYLQMNSLKPEDTAVYDCAARGLRVSSRGYYWGQGTQVTVSS

1: high polyreactivity; 2: high polyreactivity; 3: low polyreactivity; 4: high polyreactivity; 5: high polyreactivity
